subject_of_test: T1, DFNB31_1, Q9P202
T1 sequence (Q9P202 135-233, limits assumed, looked up): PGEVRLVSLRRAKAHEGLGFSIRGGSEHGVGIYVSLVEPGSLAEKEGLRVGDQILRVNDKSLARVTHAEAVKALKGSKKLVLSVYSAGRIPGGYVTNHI
assay_comment: holdup assay
Set-up: key: below the threshold = too weak to quantify, mostly under pKd 3.1 to 4
assay_setup: plain residues with an end cap or a label only (N-terminal biotin on a linker: ado-ado)
Would you kindly list pKd for each of these binders?
// no unit, no text: just the number

Ask: # get_value(readout='pKd', item= TKGPRGPTRV [SAPCD1, Q5SSQ6] )
Reply: 3.52

Ask: # get_value(readout='pKd', item= EVNETDDTKM [KCNJ1, P48048] )
Reply: 3.69

Ask: # get_value(readout='pKd', item= QMNQTLPVQV [EPHB3, P54753] )
Reply: 3.51

Ask: # get_value(readout='pKd', item= RRRESYSTTV [EVI5, O60447] )
Reply: 3.52
